- Tested on: HCT-15
Please note: GI50 exactly at 30 µM is F. Only values below 30 µM get T.

CCC(c1ccc(N(C)C)cc1)C1NC(=S)NC1=O (centres undefined)	F
COc1ccc(/N=C2\S/C(=N\C(=N\c3ccccc3)SCc3ccccc3)N(c3ccccc3)\C2=N/c2ccc(OC)cc2)cc1	F
COC(=O)c1ccc(/C=C2\CCc3ccccc3C2=O)cc1	F

GI50 strictly < 30 µM for this compound? CN(Cc1cnc2nc(N)nc(N)c2n1)c1ccc(C(=O)NC(CCC(=O)NC(CC(P(=O)(O)O)P(=O)(O)O)C(=O)O)C(=O)O)cc1 (centres undefined) F

GI50 strictly < 30 µM for this compound? C=CCCCCCCCCCOC1C=CC(O)C(CO)O1 (centres undefined) F

GI50 strictly < 30 µM for this compound? CCN(CC)CCCC(C)Nc1c2ccc(Cl)cc2nc2ccc(OC)cc12 (centres undefined) T

GI50 strictly < 30 µM for this compound? Cc1ccc2ccc3ccc(C)nc3c2n1 [NEOCUPROINE] F

GI50 strictly < 30 µM for this compound? COc1ccc(/C=C2/SC(c3ccc(Cl)cc3)N(NC(=O)CCCCCCCCC(=O)NN3C(=O)/C(=C\c4ccc(OC)c(OC)c4)SC3c3ccc(Cl)cc3)C2=O)cc1OC (centres undefined) F

GI50 strictly < 30 µM for this compound? CC1C[C@]2(C)C(=S)Nc3ccccc3[C@@H]2Nc2ccccc21 (some centres undefined) T

====

- System: NCI-H460
- test.protocol: NCI tumour cell line growth inhibition, 48 h
Calls of active or inactive are those of the source. Cut-off read from the data, not from the text of the source: active = GI50 up to about 1.1 µM and inactive = higher.
Listed here are compounds together with their documented GI50.

The following compounds have reported results that may help.
Cc1ccc2ccc3ccc(C)nc3c2n1	2.19 µM (inactive)
O=C(/C=C1\Nc2ccccc2N\C1=C/C(=O)c1ccc(F)cc1)c1ccc(F)cc1	53.7 µM (inactive)
C/N=c1\ss/c(=N\C(=S)N(C)C)n1-c1ccccc1	> 100 µM (inactive)
CCn1nc2c3c(ncn3C(C)(C)O2)c1=O	> 100 µM (inactive)
Sc1nc(S)nc(Oc2ccc(Cl)c(Cl)c2)n1	25.5 µM (inactive)

Item under review: `O=C(N/N=C\c1ccc2ccccc2c1)Nc1ccc([N+](=O)[O-])cc1` . Reported GI50? 24.4 µM (inactive)

Item under review: N#Cc1nn(C2OC(COC(=O)c3ccccc3)C(OC(=O)c3ccccc3)C2OC(=O)c2ccccc2)c2nc[nH]c(=O)c12 (stereo unspecified) . Reported GI50? 30.4 µM (inactive)

====

- System: RXF 393
- test.protocol: NCI tumour cell line growth inhibition, 48 h
Calls of active or inactive are those of the source. No stated cut-off is given here; in the data, active = GI50 up to about 1.1 µM and inactive = higher.
Thanks in advance; please answer with one of these: true (1) = active, false (0) = inactive

Consider the worked cases shown below.
COC1(Cc2ccccc2)C(=O)c2ccccc2N1C(C)=O (centres undefined)	false (0)
O=[N+]([O-])c1ccc(Cc2nc3ccccc3s2)cc1	false (0)
O=C(/C=C1\Nc2ccccc2N\C1=C/C(=O)c1ccc(F)cc1)c1ccc(F)cc1	false (0)

Turning to the following molecule.
Could you kindly confirm the outcome this assay logged for CCN(CC)CCC(=O)O[C@H]1CC[C@H](CC(C)[C@H]2CC(=O)C(C)C=C(C)[C@H](OC(=O)CCN(CC)CC)C(OC)C(=O)[C@@H](C)CC(C)/C=C/C=C/C=C(C)C(OC)CC3CC[C@H](C)[C@](O)(O3)C(=O)C(=O)N3CCCCC3C(=O)O2)CC1OC (some centres undefined) ? true (1)

The reported numbers originate from ChEMBL document CHEMBL1201862.
